These entries and their values trace back to PubChem BioAssay (NCI).

# procedure.summary: NCI Yeast Anticancer Drug Screen. Data for the wt1 strain (AID 149);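 note: 0% = growth of vehicle-treated wt1 cultures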
# test.parameters: S. cerevisiae wt1 strain (SPY 50644) growth inhibition; at 11.0 µM
About 79,000 compounds went through this panel and 15% of them were active in at least one assay; those are over-represented in the sample as a whole. Activity calls are given as the source filed them. Cut-off read from the data, not from the text of the source: active = growth inhibition above about 70%; inactive = the rest.
Outcomes: class 1 (active), class 0 (inactive)

| compound | class.assignment |
| --- | --- |
| CC1(C)CC(=O)C(C(=O)Nc2cccs2)=C(O)C1 | class 0 |
| O=[N+]([O-])c1ccc2[nH]c3c(-c4ccccc4)nccc3c2c1 | class 1 |
| CCCC/C=C1\CCC(CN2CCCC2)C1=O (configuration not stated) | class 0 |
| C=C(C(=O)OC)N1C(=O)CC(C)C1=O (configuration not stated) | class 0 |
| Nc1cc2ccccc2cc1N | class 0 |
| CCCCOc1ccc2nc(C)cc(N=[N+]=[N-])c2c1 | class 0 |
| Fc1cc(F)c(F)c(S)c1F | class 0 |

----------
growth inhibition: recorded values
# procedure.summary: NCI Yeast Anticancer Drug Screen. Data for the rad52 strain (AID 147);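 note: 0% = growth of vehicle-treated control cultures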
# test.parameters: S. cerevisiae rad52 mutant growth inhibition; at 100.0 µM; hits give high values
Compounds without any hit were thinned out: in the full panel of roughly 79,000, 15% have a hit.

| compound | growth inhibition / % |
| --- | --- |
| COc1ccc2nc3cccc([N+](=O)[O-])c3c(NCCCCCC(=O)O)c2c1 | 98 |
| CCN(CC)CC(=O)c1ccc2cc(Cl)c3ccccc3c2c1 | 98 |
| COc1cc2c(cc1O)[C@H](C)C(c1ccccc1OC)O2 (some centres not stated) | 96 |
| Cc1c2c(nc3ccccc13)C(=O)c1cccnc1C2=O | 94 |
| COc1ccc2nc(CCc3ccccc3)ccc2c1 | 96 |
| CC1=CC(=O)C=CC1=Nc1cc(Cl)c(O)c(Cl)c1 | 92 |
| CC(C)(CN1CCCCC1)C(=O)CC(SCCS(=O)(=O)O)c1ccccc1 (configuration not stated) | 18 |
| NC(=S)N1N=C2c3ccccc3CC[C@@H]2[C@@H]1c1ccccc1 | 77 |
| N#CCCC1C(C#N)C2(Cl)CC1(Cl)C(Cl)=C2Cl (configuration not stated) | 98 |
| O=C1C2=C(c3ccccc31)C(c1ccccc1)N1C(=O)CSC1=N2 (configuration not stated) | 73 |
| COc1ccc(N=c2cc(-c3ccccc3)oc3ccccc23)cc1 | -3 |
| CC12CCC(CC(=O)/C1=C(/Br)I)C2(C)C (configuration not stated) | 3 |

----------
Quick list: growth inhibition per entry.
# procedure.summary: NCI Yeast Anticancer Drug Screen. Data for the rad50EPP+ strain (AID 151);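 note: 0% = growth of vehicle-treated control cultures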
# test.parameters: S. cerevisiae rad50 mutant strain, at 1.2 µM, hits give high values
# Method: Growth inhibition of yeast strains with defined genetic alterations is measured as a screen for potential anti-cancer activity. Selected strains with alterations in DNA damage repair or cell cycle control were exposed to compounds and growth inhibition was measured relative to vehicle treated controls. The strain used in this assay is rad50EPP+
The panel holds about 79,000 compounds, 15% with a hit somewhere; the sample as a whole holds those more often.
quantity.measured: growth inhibition (%)

| compound | recorded.value |
| --- | --- |
| O=[N+]([O-])/C=C/c1cc2ccc3ccccc3c2[nH]1 | 91 |
| O=C1C=CC(=Nc2cccc3c2-c2ccccc2C3=O)O1 | 4 |
| CCCCCCCCN1COCC(COc2ccccc2C)OC1 (stereo unspecified) | -7 |
| CCC(/C=C/c1ccccc1)=N\Nc1ccc(Cl)c(Cl)c1 | 9 |
| COc1ccc(C(C)c2cc3c(cc2OC(C)O)OCO3)cc1 (stereo unspecified) | 0 |
| O=C(CN(c1ccccc1)c1ccccc1)n1nnc2ccccc21 | 15 |

----------
# procedure.summary: NCI Yeast Anticancer Drug Screen. Data for the rad18 strain (AID 177)
# test.parameters: S. cerevisiae rad18 mutant growth inhibition; at 100.0 µM
This is part of a sample that, as a whole, favours compounds with a hit. Of some 79,000 tested, about 15% had one in any assay. Activity calls are given as the source filed them. No stated cut-off is given here; in the data, active means growth inhibition above about 70%; inactive means the rest.
Labels: active, inactive

| compound | class.assignment |
| --- | --- |
| CCN(CC)CC(=O)c1ccc2cc(Cl)c3ccccc3c2c1 | active |
| Fc1ccc(Nc2ccc3ccccc3c2)cc1 | active |
| NC(=O)NC1C(c2ccccc2)=C1c1ccccc1 | inactive |
| CCCCCCCCN1COCC(COc2ccccc2C)OC1 (configuration not stated) | active |
| CCCCCCCCCCCNC=O | active |
| CC1CCC(C2=CSC3CCCCC3N2)CC1 (configuration not stated) | inactive |
| O=C(O)C1CCCCC1c1c2ccc(=O)cc-2oc2cc(O)ccc12 (configuration not stated) | active |
| O=C(C#Cc1ccccc1)Nc1ccccc1 | active |
| O=[N+]([O-])/C=C/c1cc2ccc3ccccc3c2[nH]1 | active |
| OC(Cc1cccc2ccccc12)CN1CCC(c2ccccc2)CC1 (configuration not stated) | active |
| O=C1C(/C=C/c2ccc(Cl)cc2)=NNC2N1N=C1NC(=O)C3(NN12)c1ccccc1-c1ccccc13 (configuration not stated) | inactive |
| COC(=O)C(=O)CC(=O)c1cccc(OC)c1 | inactive |

----------
The compounds listed here are annotated with their growth inhibition.
# procedure.summary: NCI Yeast Anticancer Drug Screen. Data for the wt1 strain (AID 149);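 note: 0% = growth of vehicle-treated wt1 cultures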
# test.parameters: S. cerevisiae wt1 strain (SPY 50644) growth inhibition; at 11.0 µM; hits give high values
About 79,000 compounds went through this panel and 15% of them were active in at least one assay; those are over-represented in the sample as a whole.

| compound | growth inhibition (%) |
| --- | --- |
| CC1=CC(=O)C=CC1=Nc1cc(Cl)c(O)c(Cl)c1 | -12 |
| N#Cc1nc(Nc2ccc(Cl)cc2)sc1N | -16 |
| O=C1c2cccc3cccc(c23)C(=O)N1O | 7 |
| O=C1c2ccccc2C(=O)c2c(O)c(NCCNCCO)cc(O)c21 | 9 |
| CCCCCCCC/C=C\CCCCCCCCN | 9 |
| COc1cc(C2C3=C(COC3=O)Oc3cc4c(cc32)OCO4)cc(OC)c1O (stereo unspecified) | 3 |

----------
# procedure.summary: NCI Yeast Anticancer Drug Screen. Data for the bub3 strain (AID 167)
# test.parameters: S. cerevisiae bub3 mutant strain, at 33.0 µM
The panel holds about 79,000 compounds, 15% with a hit somewhere; the sample as a whole holds those more often. Activity calls are given as the source filed them. No stated cut-off is given here; in the data, active means growth inhibition above about 70%; inactive means the rest. Residues, ends and D or L forms follow the SMILES beside them. *: point of attachment. Fmoc = O=C(OCC1c2ccccc2-c2ccccc21)*; Boc = CC(C)(C)OC(=O)*
Classes used: Yes = active, No = inactive

| compound | class.assignment |
| --- | --- |
| CCCCN(CCCC)c1ccc(N=Nc2ccc(S(=O)(=O)O)cc2)cc1 | Yes |
| O=C(Nc1cccs1)c1ccccc1 | No |
| Cc1ccnc2c(O)cccc12 | Yes |
| CCOP(=O)(OCC)/C(C#N)=C/c1cccc(Oc2ccccc2)c1 | Yes |
| Cc1ccc(S(=O)(=O)Nc2cccc3cccnc23)cc1 | No |
| CN(C)CC1=Nc2cccc3cccc(c23)N1 | No |
| CCCCCCCCCCCCCCCCCCNc1nc(=O)n(C2CC(OP(=O)(O)OCC3OC(n4cc(F)c(=O)[nH]c4=O)CC3O)C(CO)O2)cc1F (stereo not given) | No |
| CC(C)(CN1CCCCC1)C(=O)/C=C/c1c(Cl)cccc1Cl | Yes |
| O=C(NO)c1coc2ccccc2c1=O | No |
| O=Cc1ccccc1C=O | No |
| CCOC(=S)SSSC(=S)OCC | Yes |
| Cc1c(C(=O)/C=C/c2ccccc2[N+](=O)[O-])[n+](=O)c2ccccc2n1[O-] | No |
| CC(=O)Oc1ccc2c(c1)Cc1cc(N3C(=O)C=CC3=O)ccc1-2 | Yes |
| CC1=NN(C(=O)CC(=O)NC(=O)/C=C\c2ccccc2)C(=O)C1N=Nc1ccc([N+](=O)[O-])cc1 (stereo not given) | No |
| CCC(/C=C/c1ccccc1)=N\Nc1ccc(Cl)c(Cl)c1 | Yes |
| CCCN=Cc1cc(Cc2ccc(O)c(C=NCCC)c2)ccc1O | Yes |
| CS(=O)(=O)O.[Ag] | Yes |
| CC1(C)CC(=O)C(C=NC(=S)C(N)=S)=C(O)C1 | No |
| CCOC(=O)/C(=C\c1ccc(F)cc1)C(C)=O | Yes |
| O=C(O)C1CCCCC1c1c2ccc(=O)cc-2oc2cc(O)ccc12 (stereo not given) | No |
| COc1ccc(/C=C2\SC(=S)N(/C=C3\C(=O)N(c4ccccc4)N=C3C)C2=O)cc1OC | No |
| c1ccc2nc3c(nc2c1)sc1ccccc13 | No |
| O=C1/C(=C/c2ccc(Cl)c(Cl)c2)CNC/C1=C\c1ccc(Cl)c(Cl)c1 | No |
| O=[N+]([O-])c1ccc2[nH]c3c(-c4ccccc4)nccc3c2c1 | Yes |
| c1c[nH]c(CN2CCN(Cc3ncc[nH]3)CC2)n1 | Yes |
| Oc1ccc(N=Nc2ccc(Cl)cc2)cc1 | Yes |
| C/C1=C/C2OC(=O)C3(C)C2C(CC2(C)OC1=CC2=O)OC3(O)C(C)C (stereo not given) | No |
| COc1ccc(C(OCC2OC(n3cnc4c(=O)n(Cc5ccccc5[N+](=O)[O-])nnc43)C(O)C2O)(c2ccccc2)c2ccc(OC)cc2)cc1 (stereo not given) | No |
| S=C1C(=Nc2ccccc2)N(c2ccccc2)/C(=N\c2ccccn2)N1c1ccccc1 | Yes |
| Cc1cccc(C)c1NC(=O)C(C#N)C1=C(Cl)C(=O)c2ccccc2C1=O (stereo not given) | Yes |
| c1ccc2c(c1)N=C1CCCC3CCCC123 (stereo not given) | No |
| Brc1ccc(B2Nc3ccccc3N2)cc1 | No |
| O=C(Nc1ccc(Cl)cc1)c1cc2cc(N=Nc3ccccc3Cl)ccc2oc1=O | Yes |
| Cc1cc(Cl)ccc1NC(=O)/C(Cl)=C(/Cl)C(=O)O | No |
| Cc1cccc(/C=N/NC(=S)NC2CCCCC2)n1 | No |
| CC(=O)N1C=Cc2c(c(C)c3c([nH]c4ccccc43)c2C)C1 | Yes |
| CC(C)=CCC/C(C)=C/CN1C(=O)C=CC1=O | Yes |
| CCCCCCC=C(C(=O)OCC)C(=O)OCC | No |
| CCOC(=O)Nc1ccc(C)c(NC(=O)OCC)c1 | No |
| CC(C)(C)OC(=O)NCCCCC(NC(=O)C(Cc1c[nH]c2ccccc12)NC(=O)OCC1c2ccccc2-c2ccccc21)C(=O)O (stereo not given) (Fmoc-Trp-Lys(Boc)-OH; configuration not given here) | No |
| Nc1cccc(-c2cc[cH-]c2)c1.[Fe+2].c1cc[cH-]c1 | No |
| COc1ccc2nc3cccc([N+](=O)[O-])c3c(NCCNCCN(C)C)c2c1 | No |
| CC(C)(C)c1ccc2c(c1)C(=O)c1ccccc1C2=O | Yes |
| CC1(c2ccccc2)O[C@@H]2C[C@H]3[C@@H]4CCC5=CC(=O)C=C[C@]5(C)[C@@]4(F)[C@@H](O)C[C@]3(C)[C@]2(C(=O)CO)O1 (stereo not given in full) | No |
| Nc1ccc2cc(Br)ccc2c1Br | No |
